# Tested on: HEK293T (UBE3A T485A transfected, BAR Wnt reporter)
# test protocol: Wnt reporter firefly/Renilla luciferase ratio relative to plate median (fold (linear ratio)); higher = more Wnt/beta-catenin reporter activation
# measurement context: concentration: 10 uM; 24 h
Whole data set: some 1,100 compounds, median “Wnt reporter firefly/Renilla luciferase ratio relative to plate median” near 1.1, cut for the highest 2% near 1.6. The sample as a whole holds a higher share of the highest values than the screen did.
Mark 0 (no) for Wnt reporter firefly/Renilla luciferase ratio values under 1, and 1 (yes) for everything at or above.

Cc1cccc([N+](=O)[O-])c1 [3-Nitrotoluene]: 0 (no)
CCNc1nc(NC(C)C)nc(SC)n1 [Ametryn]: 1 (yes)
CCCCN(CCCC)N=O [N-Nitrosodibutylamine]: 1 (yes)
CCCCOC(=O)c1ccccc1C(=O)OCCCC [Dibutyl phthalate]: 1 (yes)
ClC1(Cl)C2(Cl)C3(Cl)C4(Cl)C(Cl)(Cl)C5(Cl)C3(Cl)C1(Cl)C5(Cl)C24Cl (stereo unspecified) [Mirex]: 0 (no)

Quick check, Wnt reporter firefly/Renilla luciferase ratio >= 1? CNC(=O)ON=C(SC)C(=O)N(C)C [Oxamyl] 1 (yes)

Quick check, Wnt reporter firefly/Renilla luciferase ratio >= 1? CCCCCOC(=O)c1ccccc1C(=O)OCCCCC [Dipentyl phthalate] 1 (yes)

Quick check, Wnt reporter firefly/Renilla luciferase ratio >= 1? ClC1=C(Cl)C2(Cl)C3C(Cl)C=CC3C1(Cl)C2(Cl)Cl (stereo unspecified) [Heptachlor] 1 (yes)

Quick check, Wnt reporter firefly/Renilla luciferase ratio >= 1? Cc1cc(C)cc(C)c1 [1,3,5-Trimethylbenzene] 1 (yes)

Quick check, Wnt reporter firefly/Renilla luciferase ratio >= 1? CC(C)CCCCCCCOC(=O)c1ccccc1C(=O)OCCCCCCCC(C)C 1 (yes)

Quick check, Wnt reporter firefly/Renilla luciferase ratio >= 1? CCOP(=O)(OCC)Oc1nc(Cl)c(Cl)cc1Cl [Chlorpyrifos oxon] 0 (no)

Quick check, Wnt reporter firefly/Renilla luciferase ratio >= 1? O=C(O)C1C(C(=O)O)C2(Cl)C(Cl)=C(Cl)C1(Cl)C2(Cl)Cl (stereo unspecified) [Chlorendic acid] 0 (no)

Quick check, Wnt reporter firefly/Renilla luciferase ratio >= 1? CCOP(=S)(OCC)SCSCC [Phorate] 1 (yes)

Quick check, Wnt reporter firefly/Renilla luciferase ratio >= 1? CCCC1COC(Cn2cncn2)(c2ccc(Cl)cc2Cl)O1 (stereo unspecified) [Propiconazole] 0 (no)

Quick check, Wnt reporter firefly/Renilla luciferase ratio >= 1? CS(=O)(=O)c1ccc(C(=O)C2C(=O)CCCC2=O)c([N+](=O)[O-])c1 [Mesotrione] 1 (yes)

Quick check, Wnt reporter firefly/Renilla luciferase ratio >= 1? CS/C(C)=N/OC(=O)N(C)SN(C)C(=O)O/N=C(\C)SC [Thiodicarb] 1 (yes)

Quick check, Wnt reporter firefly/Renilla luciferase ratio >= 1? CC(C)C1(C)N=C(c2ncccc2C(=O)O)NC1=O (stereo unspecified) [Imazapyr] 1 (yes)

Quick check, Wnt reporter firefly/Renilla luciferase ratio >= 1? CCN(CC)N=O [N-Nitrosodiethylamine] 1 (yes)

Quick check, Wnt reporter firefly/Renilla luciferase ratio >= 1? CC(C)(C)OOC(=O)c1ccccc1 [tert-Butyl perbenzoate] 1 (yes)

Origin of measurements: the supplement of paper PMC9254222
